experiment: viability loss in HepG2 liver cells – cell-based, ATP luminescence, cherry-pick, set 6, cytotoxicity control, dose response (AID 1053125); settings: ATP luminescence (CellTiter-Glo), 72 h; series mostly up to 26 µM;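 note: negative values mean loss of viability signal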
Results with a measured potency or affinity are listed apart. Calls of active or inactive are those of the source.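 Rule for the calls: active = viability loss whose fitted half-maximal concentration is at most twice the top valid tested dose; inconclusive = flat curve with 30 to 70% loss, or poor fit; inactive = the rest.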
Assay Metric: outcome

COc1ccc(Cn2nnnc2C(CC(C)C)N2CCC(C(N)=O)CC2)cc1 (stereo unspecified) ... inactive
CC(=O)Oc1ccc2cc(-c3nc4ccccc4n3C)c(=O)oc2c1 ... inactive
CCC(Sc1nc(N)c(NC(=O)c2ccc(OC)cc2)c(=O)[nH]1)C(=O)O (stereo unspecified) ... inactive
COc1ccc(C2CC(c3ccccc3)=NN2c2ccc(C(N)=O)cc2)cc1 (stereo unspecified) ... inactive
Cc1c(Nc2c3ccccc3nc3ccccc23)c(=O)n(-c2ccccc2)n1C ... inactive

outcome reading for `CCCCn1nc(NC(=O)c2cccs2)c2cc3cc(OC)ccc3nc21` : inactive

Short answer for `COCCN1C=C(C(=O)OC)C(c2ccc(Cl)cc2)C(C(=O)OC)=C1` : outcome was inactive

For record `COCc1cc(C)nc(SCC(=O)Oc2ccc(Cl)cc2)c1C#N` the listed outcome is inactive

// field: outcome; key: `COC(=O)c1cc(=O)n(Cc2ccc3c(c2)OCO3)c(=Nc2ccc(F)c(Cl)c2)s1` ; value = inactive

The measured outcome associated with `CCn1c(=N)c(C(=O)NCCCOC)cc2c(=O)n3cccc(C)c3nc21` reads inactive

Please fill in: outcome reported for CCOc1ccc(C2C(C#N)=C(N)Oc3cc(O)ccc32)cc1OCC (stereo unspecified) = inactive
